# Tested on: MOLT-4 leukemia
# ASSAY EXPLANATION: NCI tumour cell line growth inhibition, 48 h; in the data active = GI50 below about 0.43 µM; inactive = the rest
Possible outcomes: active, inactive

[[record]]
compound = "CCCc1nc2c(C)cc(-c3nc4ccccc4n3C)cc2n1Cc1ccc(-c2ccccc2C(=O)O)cc1"
label_value = "inactive"

[[record]]
compound = "CCCN(CCC)c1ccc(/C=N/NC(=O)c2cccnc2)c(Cl)c1"
label_value = "inactive"

[[record]]
compound = "Cc1ccc(S(=O)(=O)N2CCc3ccc(O)c4c3C2Cc2cc(Cl)ccc2-4)cc1 (stereo unspecified)"
label_value = "inactive"

[[record]]
compound = "C[C@@H]1C=C2C(=O)O[C@@H]3CC[C@H](C1)[C@]23O"
label_value = "inactive"

[[record]]
compound = "N.N.NCCCCN.O=C([O-])C1(C(=O)[O-])CCC1.O=C([O-])C1(C(=O)[O-])CCC1.[Pt+4].[Pt+4]"
label_value = "inactive"

[[record]]
compound = "Cc1nc(NC(=O)CCCN2C(=O)c3cccc4cccc(c34)C2=O)sc1C(=O)Nc1cc(C(=O)NCCCN(C)C)n(C)c1"
label_value = "inactive"

[[record]]
compound = "CSc1nc2sc3cc(Cl)ccc3n2c(=N)c1C#N"
label_value = "inactive"

[[record]]
compound = "COc1ccc(-c2ccc(C3CC(c4ccc(Cl)cc4)=NN3)o2)c([N+](=O)[O-])c1 (stereo unspecified)"
label_value = "inactive"

[[record]]
compound = "CC(=O)N=c1ccc2nc3c(cc(N)c4ccccc43)oc-2c1"
label_value = "active"

[[record]]
compound = "COc1cc(C(=O)c2cc3c(cc2C)OCO3)cc(OC)c1OC"
label_value = "active"

[[record]]
compound = "Cc1ccc(C)c(-c2csc(Nc3ccc(C)c(C)c3)n2)c1"
label_value = "inactive"


====

Below, each entry is listed alongside its reported TGI.
# Test system: U251 CNS
# ASSAY EXPLANATION: NCI tumour cell line growth inhibition, 48 h
MEASURE: TGI (µM)

[[record]]
molecule = "COc1ccc(C2=NN(C(C)=O)C(c3cn(-c4ccccc4)nc3-c3ccc(Cl)cc3)C2)cc1 (stereo not given)"
target_system = "U251 CNS"
measurement_unit = "µM"
limit_operator = ">"
readout_number = 100

[[record]]
molecule = "Nc1ccc(/C=N/Nc2ccnc3c(N)cccc23)c2cccnc12"
target_system = "U251 CNS"
measurement_unit = "µM"
limit_operator = "="
readout_number = 3.09

[[record]]
molecule = "CCCc1nc2c(C)cc(-c3nc4ccccc4n3C)cc2n1Cc1ccc(-c2ccccc2C(=O)O)cc1"
target_system = "U251 CNS"
measurement_unit = "µM"
limit_operator = "="
readout_number = 51.8

[[record]]
molecule = "O=C1C=C(NCCc2cc(Br)c(O)c(Br)c2)C(=O)c2ncccc21"
target_system = "U251 CNS"
measurement_unit = "µM"
limit_operator = "="
readout_number = 20

[[record]]
molecule = "c1cncc(-c2ncc3cccnc3n2)c1"
target_system = "U251 CNS"
measurement_unit = "µM"
limit_operator = ">"
readout_number = 100

[[record]]
molecule = "CC1CCC2C(C(=O)O[C@H]3C4CCO[C@@H](OC5OC(CO)C(O)C(O)C5O)C4[C@@]4(CO)O[C@@H]34)=CO[C@@H](OC3OC(CO)C(O)C(O)C3O)C12 (stereo not given in full)"
target_system = "U251 CNS"
measurement_unit = "µM"
limit_operator = ">"
readout_number = 10

[[record]]
molecule = "CCC(=C/[C@H](C)C/C=C/C(C)=C/[C@@H](C)C(=O)[C@@H](C)[C@H](O)[C@@H](C)CC)/C=C/[C@H]1OC(=O)C=C[C@H]1C"
target_system = "U251 CNS"
measurement_unit = "µM"
limit_operator = "="
readout_number = 1.35

[[record]]
molecule = "C[C@H]1[C@H](C)CC[C@]2(C(=O)O)CC[C@]3(C)C(=CC[C@@H]4[C@@]5(C)C/C(=C/c6ccco6)C(=O)C(C)(C)[C@@H]5CC[C@]43C)[C@H]12"
target_system = "U251 CNS"
measurement_unit = "µM"
limit_operator = "="
readout_number = 17

[[record]]
molecule = "CCC(C)C(NC(=O)C1CCCN1C(=O)C(NC(=O)C(C)N)C(C)C)C(N)=O (stereo not given)"
target_system = "U251 CNS"
measurement_unit = "µM"
limit_operator = ">"
readout_number = 100

[[record]]
molecule = "CCOC(=O)CCC(NC(=O)c1ccc(OCc2nc3ccccc3n3cccc23)cc1)C(=O)OCC (stereo not given)"
target_system = "U251 CNS"
measurement_unit = "µM"
limit_operator = ">"
readout_number = 100


Hello, the source for this data is PubChem BioAssay (NCI), in case you need it.
